Origin of measurements: PubChem BioAssay (NCI)

system: SW-620 colon; assay: NCI-60 one-dose screen, 48 h (100 = growth as untreated, 0 = no growth, -100 = all killed); conditions: 10 µM unless noted
This is part of a sample that, as a whole, favours compounds with a hit. Of some 83,000 tested, about 20% had one in any assay.
In this section we review reported growth values for a set of compounds.
# unit: % | format: bare number

- compound: "Cc1ccc(/C=C/c2nn3c(-c4ccco4)nnc3s2)cc1C"
  measure: "growth"
  measValue: 98.5
- compound: "N#Cc1c(-c2ccc(Cl)cc2)nc(SCc2ccc(F)cc2)nc1N1CCNCC1"
  measure: "growth"
  measValue: -80.2
- compound: "O=C(N/N=C/c1ccco1)c1[nH]c2ccc(Br)cc2c1-c1ccccc1"
  measure: "growth"
  measValue: 24.8

I have this compound here, Cc1ccc(CNS(=O)(=O)/N=C2\NC(=O)NC2=C(Cl)Cl)cc1 , and I need its recorded growth.
32.4

Give its growth value. Item: CSCCC(C(=O)O)N1C(=O)/C(=C/c2ccc(O)c(O)c2)SC1=S (stereo not given)
102

====

test system: NCI-H322M lung; test: NCI-60 one-dose screen, 48 h; conditions: 10 µM unless noted
This is part of a sample that, as a whole, favours compounds with a hit. Of some 83,000 tested, about 20% had one in any assay. Active and inactive are the calls of the source. Rule for the calls: active = growth percent below 10; inactive = the rest.
Would you mind answering with one of these outcomes? label 1 (active), label 0 (inactive)

See these solved cases before continuing.
- compound: "OC1CCN(CCCOc2c3ccc(Cl)cc3nc3c2oc2ccccc23)CC1"
  classLabel: "label 1"
- compound: "COc1ccc([C@@H]2c3[nH]c4ccccc4c3CC3C(=O)N(C4CCN(Cc5c(F)cccc5F)CC4)CC(=O)N32)c(OC)c1 (stereo not given in full)"
  classLabel: "label 0"
- compound: "C=CCn1c(SCC(=O)c2ccccc2)nnc1-c1c[nH]c2ccccc12"
  classLabel: "label 0"
- compound: "COc1cc(/C=C/C(=O)c2cc(OC)c(OC)c(OC)c2)ccc1OCc1ccccc1"
  classLabel: "label 0"
- compound: "O=[N+]([O-])c1ccc(O)c2ncccc12"
  classLabel: "label 0"
- compound: "CN1C(=O)N(c2ccccc2)C2N=C(N/N=C/c3ccccc3)SC21 (stereo not given)"
  classLabel: "label 0"
- compound: "COc1cc(/C=C/C(=O)c2ccc(C)cc2)ccc1Oc1nc(NCCO)nc(N2CCOCC2)n1"
  classLabel: "label 0"
- compound: "COc1cc(/C=C/C(=O)c2ccccc2)ccc1Oc1nc(NCCO)nc(N2CCOCC2)n1"
  classLabel: "label 0"

For COc1ccc(/C=N/Nc2ccnc3cc(Cl)ccc23)cc1Cl , what call appears in the results of this test?
label 1

Could you please tell me the result logged for Cn1ccnc1C(=O)/C=C/c1ccc(NC(=O)Nc2ccc(Cl)cc2)cc1 in this assay?
label 0

====

system: SK-MEL-2 melanoma; assay: NCI-60 one-dose screen, 48 h (100 = growth as untreated, 0 = no growth, -100 = all killed); conditions: 10 µM unless noted
Compounds without any hit were thinned out: in the full panel of roughly 83,000, 20% have a hit.
measure: growth (%)
Answer in %, number only, no unit symbol.

Worked examples, 5 compounds total:
- compound: "CN1CCc2c(sc3ncnc(N/N=C/c4ccc(Cl)c(Cl)c4)c23)C1"
  testedOn: "SK-MEL-2 melanoma"
  measValue: 117
- compound: "Cc1ccc(-c2nc(C(Cl)Cl)nc3cc(-c4ccccc4)nn23)cc1"
  testedOn: "SK-MEL-2 melanoma"
  measValue: 88.8
- compound: "COc1cc(/C=C/C(=O)c2cc(OC)c(OC)c(OC)c2)ccc1OCc1ccccc1"
  testedOn: "SK-MEL-2 melanoma"
  measValue: 80.7
- compound: "COc1cc(OC)c(S(=O)(=O)NNC(=O)c2ccncc2)cc1C(=O)/C=C/c1ccc(C)cc1"
  testedOn: "SK-MEL-2 melanoma"
  measValue: 109
- compound: "C#C[C@]1(O)CC[C@H]2[C@@H]3CC=C4c5sc(Nc6ccc(Cl)cn6)nc5CC[C@]4(C)[C@H]3CC[C@@]21C"
  testedOn: "SK-MEL-2 melanoma"
  measValue: -13.4

Now for a further compound.
Tell me the measured growth of COc1ccc(/C=N/NC(=O)c2[nH]c3ccc(Br)cc3c2-c2ccccc2)s1 , please.
43.9
